- assay explanation: Solubility of ADX-102 in potential receiver fluid systems
- Assay type: physicochemical
- measurement parameters: aqueous with cosolvent or surfactant or cyclodextrin; receiver fluid 4: 20% PEG 400 in ethanol and water (50:50 v/v)

# compound, solubility, mg/mL
rows = [
    ("CC(C)(O)c1nc2ccc(Cl)cc2cc1N [ADX-102]", 20.5),
]

====

- assay explanation: Solubility of ADX-102 in potential receiver fluid systems
- Type: physicochemical
- measurement parameters: aqueous with cosolvent or surfactant or cyclodextrin; receiver fluid 5: 2% Tween 80 in water
measure: solubility (mg/mL)

# test smiles, units label, recorded result
data = [
    ("CC(C)(O)c1nc2ccc(Cl)cc2cc1N", "mg/mL", 26.3),
]

====

- assay explanation: Solubility of ADX-102 in potential receiver fluid systems
- Assay type: physicochemical
- measurement parameters: aqueous with cosolvent or surfactant or cyclodextrin; receiver fluid 2: 2% Brij 98 in ethanol and water (50:50 v/v)

# test smiles, solubility, mg/mL
records = [
    ("CC(C)(O)c1nc2ccc(Cl)cc2cc1N", 28.3),
]

Numbers sourced from patent US20200038392A1.
